Provenance of the data: paper PMC8298264

Test system: human HL60 cells
Experiment: SWATH-MS proteomics, differential protein representation, akirin2 KO vs WT HL60 cells
Format: cell-based
Details: KO vs WT HL60 cells; sheet "Under-represented in KO"
READOUT: Fold Change
Answers are plain numbers.

Solved entries (count: 5):
sp¦P51159¦RB27A_HUMAN (protein, UniProt P51159 2-221, looked up) Ras-related protein Rab-27A: SDGDYDYLIKFLALGDSGVGKTSVLYQYTDGKFNSKFITTVGIDFREKRVVYRASGPDGATGRGQRIHLQLWDTAGQERFRSLTTAFFRDAMGFLLLFDLTNEQSFLNVRNWISQLQMHAYCENPDIVLCGNKSDLEDQRVVKEEEAIALAEKYGIPYFETSAANGTNISQAIEMLLDLIMKRMERCVDKSWIPEGVVRSNGHASTDQLSEEKEKGACGC | 0.5507
sp¦Q9H7B2¦RPF2_HUMAN (protein, UniProt Q9H7B2 1-306, looked up) Ribosome production factor 2 …: MDTLDRVVKPKTKRAKRFLEKREPKLNENIKNAMLIKGGNANATVTKVLKDVYALKKPYGVLYKKKNITRPFEDQTSLEFFSKKSDCSLFMFGSHNKKRPNNLVIGRMYDYHVLDMIELGIENFVSLKDIKNSKCPEGTKPMLIFAGDDFDVTEDYRRLKSLLIDFFRGPTVSNIRLAGLEYVLHFTALNGKIYFRSYKLLLKKSGCRTPRIELEEMGPSLDLVLRRTHLASDDLYKLSMKMPKALKPKKKKNISHDTFGTTYGRIHMQKQDLSKLQTRKMKGLKKRPAERITEDHEKKSKRIKKN | 0.4816
sp¦Q8WU39¦MZB1_HUMAN (protein, UniProt Q8WU39 23-189, looked up) Marginal zone B- and …: DRAPLTATAPQLDDEEMYSAHMPAHLRCDACRAVAYQMWQNLAKAETKLHTSNSGGRRELSELVYTDVLDRSCSRNWQDYGVREVDQVKRLTGPGLSEGPEPSISVMVTGGPWPTRLSRTCLHYLGEFGEDQIYEAHQQGRGALEALLCGGPQGACSEKVSATREEL | 0.5261
sp¦P25815¦S100P_HUMAN (protein, UniProt P25815 1-95, looked up) Protein S100-P: MTELETAMGMIIDVFSRYSGSEGSTQTLTKGELKVLMEKELPGFLQSGKDKDAVDKLLKDLDANGDAQVDFSEFIVFVAAITSACHKYFEKAGLK | 0.4762
sp¦P51148¦RAB5C_HUMAN (protein, UniProt P51148 1-216, looked up) Ras-related protein Rab-5C: MAGRGGAARPNGPAAGNKICQFKLVLLGESAVGKSSLVLRFVKGQFHEYQESTIGAAFLTQTVCLDDTTVKFEIWDTAGQERYHSLAPMYYRGAQAAIVVYDITNTDTFARAKNWVKELQRQASPNIVIALAGNKADLASKRAVEFQEAQAYADDNSLLFMETSAKTAMNVNEIFMAIAKKLPKNEPQNATGAPGRNRGVDLQENNPASRSQCCSN | 0.5435

I need Fold Change for every entry listed below, if you could help.
1. sp¦Q9Y617¦SERC_HUMAN (protein, UniProt Q9Y617 1-370, looked up) Phosphoserine aminotransferase: MDAPRQVVNFGPGPAKLPHSVLLEIQKELLDYKGVGISVLEMSHRSSDFAKIINNTENLVRELLAVPDNYKVIFLQGGGCGQFSAVPLNLIGLKAGRCADYVVTGAWSAKAAEEAKKFGTINIVHPKLGSYTKIPDPSTWNLNPDASYVYYCANETVHGVEFDFIPDVKGAVLVCDMSSNFLSKPVDVSKFGVIFAGAQKNVGSAGVTVVIVRDDLLGFALRECPSVLEYKVQAGNSSLYNTPPCFSIYVMGLVLEWIKNNGGAAAMEKLSSIKSQTIYEIIDNSQGFYVCPVEPQNRSKMNIPFRIGNAKGDDALEKRFLDKALELNMLSLKGHRSVGGIRASLYNAVTIEDVQKLAAFMKKFLEMHQL
2. sp¦Q9NVA1¦UQCC1_HUMAN (protein, UniProt Q9NVA1 1-299, looked up) Ubiquinol-cytochrome c …: MALLVRVLRNQTSISQWVPVCSRLIPVSPTQGQGDRALSRTSQWPQMSQSRACGGSEQIPGIDIQLNRKYHTTRKLSTTKDSPQPVEEKVGAFTKIIEAMGFTGPLKYSKWKIKIAALRMYTSCVEKTDFEEFFLRCQMPDTFNSWFLITLLHVWMCLVRMKQEGRSGKYMCRIIVHFMWEDVQQRGRVMGVNPYILKKNMILMTNHFYAAILGYDEGILSDDHGLAAALWRTFFNRKCEDPRHLELLVEYVRKQIQYLDSMNGEDLLLTGEVSWRPLVEKNPQSILKPHSPTYNDEGL
3. sp¦Q9NUQ9¦CYRIB_HUMAN (protein, UniProt Q9NUQ9 2-324, looked up) CYFIP-related Rac1 interactor …: GNLLKVLTCTDLEQGPNFFLDFENAQPTESEKEIYNQVNVVLKDAEGILEDLQSYRGAGHEIREAIQHPADEKLQEKAWGAVVPLVGKLKKFYEFSQRLEAALRGLLGALTSTPYSPTQHLEREQALAKQFAEILHFTLRFDELKMTNPAIQNDFSYYRRTLSRMRINNVPAEGENEVNNELANRMSLFYAEATPMLKTLSDATTKFVSENKNLPIENTTDCLSTMASVCRVMLETPEYRSRFTNEETVSFCLRVMVGVIILYDHVHPVGAFAKTSKIDMKGCIKVLKDQPPNSVEGLLNALRYTTKHLNDETTSKQIKSMLQ
4. sp¦P61020¦RAB5B_HUMAN (protein, UniProt P61020 2-215, looked up) Ras-related protein Rab-5B: TSRSTARPNGQPQASKICQFKLVLLGESAVGKSSLVLRFVKGQFHEYQESTIGAAFLTQSVCLDDTTVKFEIWDTAGQERYHSLAPMYYRGAQAAIVVYDITNQETFARAKTWVKELQRQASPSIVIALAGNKADLANKRMVEYEEAQAYADDNSLLFMETSAKTAMNVNDLFLAIAKKLPKSEPQNLGGAAGRSRGVDLHEQSQQNKSQCCSN
5. sp¦Q9P035¦HACD3_HUMAN (protein, UniProt Q9P035 1-362, looked up) Very-long-chain …: MENQVLTPHVYWAQRHRELYLRVELSDVQNPAISITENVLHFKAQGHGAKGDNVYEFHLEFLDLVKPEPVYKLTQRQVNITVQKKVSQWWERLTKQEKRPLFLAPDFDRWLDESDAEMELRAKEEERLNKLRLESEGSPETLTNLRKGYLFMYNLVQFLGFSWIFVNLTVRFCILGKESFYDTFHTVADMMYFCQMLAVVETINAAIGVTTSPVLPSLIQLLGRNFILFIIFGTMEEMQNKAVVFFVFYLWSAIEIFRYSFYMLTCIDMDWKVLTWLRYTLWIPLYPLGCLAEAVSVIQSIPIFNETGRFSFTLPYPVKIKVRFSFFLQIYLIMIFLGLYINFRHLYKQRRRRYGQKKKKIH

**Result**
0.4967
0.5349
0.4847
0.4514
0.4569
